FYI, the data here is from PubChem BioAssay AID1159580.

- Assay Remarks: chemical genetic growth profiling, strain panel (AID 1159580);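 also: tested at 20 µM; growth read once vehicle control cultures reached saturation at 30 °C; 1 = growth at the plate median or of vehicle wells; lower values mean less growth of the strain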
- Condition Notes: S. cerevisiae deletion strains, growth OD, locus YOR184W, strain ser1
About 2,000 (36%) of roughly 5,500 compounds were called active. Another 18% or so got no clear call; they are omitted. Rule as the data show it: active = normalized growth mostly below about 0.91 (no sharp cut-off); inconclusive = no clear call, values can overlap the other calls; inactive = mostly above about 0.92. The list shows a part of the results.
Form entry, call: pick from active, inactive

Recorded call for C=C1C(=O)OC2CC1C(OC(C)=O)C/C(C)=C/CC/C(C)=C/CC[C@]2(C)O (some centres undefined) ?
inactive

Recorded call for `NC[C@@H]1CC[C@@H](N)[C@@H](O[C@H]2[C@H](O)[C@@H](O[C@H]3O[C@H](CO)[C@@H](O)[C@H](N)[C@H]3O)[C@H](N)C[C@@H]2N)O1` ?
inactive

Recorded call for `COc1ccc2c(c1)CCC(c1ccccc1)=C2c1ccc(OCCN2CCCC2)cc1` ?
active

Recorded call for C=C1C(=O)O[C@@H]2C3O[C@]3(C)CC/C=C(\C)CC[C@@H]12 (some centres undefined) ?
active

----------
- Assay Remarks: chemical genetic growth profiling, strain panel (AID 1159580);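 also: tested at 20 µM; growth read once vehicle control cultures reached saturation at 30 °C; 1 = growth at the plate median or of vehicle wells; lower values mean less growth of the strain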
- Condition Notes: S. cerevisiae deletion strains, growth OD, locus YKL101W, strain HSL1, stronger effect = lower value
Screen size: about 5,500 compounds; about 2,000 (36%) were called active. Another 18% or so got no clear call; they are omitted. Some of the results follow.
Please use 1.0 for normalized growth under 0.3 and 0.0 for everything else, ties included.

Below 0.3 on normalized growth? Entry `Cc1nc(-c2ccc(S(=O)(=O)Nc3ccc(Br)cc3Cl)s2)cs1`
0.0

Below 0.3 on normalized growth? Entry `Cc1ccc(NS(=O)(=O)c2ccc(Cl)cc2)c(N=Cc2cc(Cl)cc(Cl)c2O)c1`
1.0

Below 0.3 on normalized growth? Entry `Cc1onc(-c2c(F)cccc2Cl)c1C(=O)NNc1cc(Cl)cc(Cl)c1`
0.0

Below 0.3 on normalized growth? Entry `CCCCCCCCCCCC(=O)NOC(=O)c1c(-c2c(Cl)cccc2Cl)noc1C`
0.0

Below 0.3 on normalized growth? Entry `CC(C)(CCC(C)(C)N1C(=O)c2cccc3cccc(c23)C1=O)N1C(=O)c2cccc3cccc(c23)C1=O`
1.0

----------
Would you kindly list normalized growth for each of these molecules?
- Assay Remarks: chemical genetic growth profiling, strain panel (AID 1159580);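 also: tested at 20 µM; growth read once vehicle control cultures reached saturation at 30 °C; 1 = growth at the plate median or of vehicle wells; lower values mean less growth of the strain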
- Condition Notes: S. cerevisiae deletion strains, growth OD, locus YDR502C, strain sam2, stronger effect = lower value
About 2,000 (36%) of roughly 5,500 compounds were called active. About 18% were inconclusive and are not listed. This is one part of the list.
// print number alone

For record C=C1C(C)C2C(Cc3ccccc3)NC(=O)C23OC(=O)/C=C/C(=O)CCCC(C)C/C=C/C3C1O (stereo not given) the listed normalized growth is 0.998

For record COc1cc2c(cc1OC)C1Cc3ccc(OC)c(OC)c3CN1CC2 (stereo not given) the listed normalized growth is 1

For record `O=c1[nH]oc2c1CCNC2` the listed normalized growth is 1

For record C=C1C(C)C2C(Cc3ccccc3)NC(=O)C23OC(=O)/C=C/C(O)CCCC(C)C/C=C/C3C1O (stereo not given) the listed normalized growth is 0.996

For record `CC1(C)NC(=O)N(c2ccc([N+](=O)[O-])c(C(F)(F)F)c2)C1=O` the listed normalized growth is 0.984

For record `CO/N=C(\C(=O)N[C@@H]1C(=O)N2C(C(=O)O)=C(CSc3nc(=O)c(O)nn3C)CS[C@H]12)c1csc(N)n1` the listed normalized growth is 1.01

For record `NC(=O)c1cccc(N)c1` the listed normalized growth is 1.01

For record CO/N=C(\C(=O)NC1C(=O)N2C(C(=O)O)=C(COC(N)=O)CSC12)c1ccco1 (stereo not given) the listed normalized growth is 0.057

For record `CC(C)(C)CC(C)(C)c1ccc(O)c(Cc2ccc(Cl)cc2Cl)c1` the listed normalized growth is 1.02

For record `NC(N)=NS(=O)(=O)c1ccc(N)cc1` the listed normalized growth is 0.997
